Data credit: PubChem BioAssay AID1159580

Parameter: normalized growth. Scope: all listed entries.
experiment: chemical genetic growth profiling, strain panel (AID 1159580);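 further: tested at 20 µM; growth read once vehicle control cultures reached saturation at 30 °C; 1 = growth at the plate median or of vehicle wells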; details: S. cerevisiae deletion strains, growth OD, locus YFR010W, strain ubp6, stronger effect = lower value
Out of some 5,500 compounds screened, about 2,000 (36%) were called active. Another 18% or so got no clear call; they are omitted. The list shows a part of the results.
assay.endpoint: normalized growth

• COc1ccc(C(=O)N2CCCC2=O)cc1 = 0.962
• CC(=O)Nc1nnc(S(N)(=O)=O)s1 = 1.03
• Clc1ccc2c(c1)C(N1CCNCC1)=Nc1ccccc1O2 = 0.88
• CC(=O)N=c1sc(S(N)(=O)=O)nn1C = 1.02
• C[C@@H]1CC2C3CCC4=CC(=O)C=C[C@]4(C)[C@@]3(F)[C@@H](O)C[C@]2(C)[C@H]1C(=O)CO (stereo partly specified) = 0.989
• COC(=O)CCC(C)[C@H]1CCC2C3C(C[C@H](O)[C@@]21C)[C@@]1(C)CC[C@@H](O)C[C@H]1C[C@H]3O (stereo partly specified) = 0.996
• CC(C)CCCC(C)C1CCC2C3CC[C@H]4CCCC[C@]4(C)C3CC[C@]12C (stereo partly specified) = 1.02
• CNC(=O)Oc1ccc2c(c1)[C@]1(C)CCN(C)[C@@H]1N2C = 1.01
• O=[N+]([O-])c1cccc2cn[nH]c12 = 0.988
• c1ccc2nc(N3CCNCC3)ccc2c1 = 0.985
• C[C@@H]1CC2C3C[C@H](F)C4=CC(=O)C=C[C@]4(C)[C@@]3(F)[C@@H](O)C[C@]2(C)[C@@]1(O)C(=O)COC(=O)C(C)(C)C (stereo partly specified) = 0.997

----------
assay: chemical genetic growth profiling, strain panel (AID 1159580); conditions: S. cerevisiae deletion strains, growth OD, locus YFR028C, strain CDC14, stronger effect = lower value
The whole screen tested about 5,500 compounds, of which about 2,000 (36%) were called active. Inconclusive results (about 18%) are left out. The list shows a part of the results.
assay.endpoint: normalized growth

• COc1ccc(C(=O)NCc2csc3ccc(Cl)cc23)cc1OC = 0.977
• COc1cc(CC/C(C)=N/O)ccc1OCc1ccc(Cl)cc1Cl = 0.984
• S=C(Nc1cc(Cl)c(Cl)cc1Cl)Nc1ccccc1Br = 0.943
• Cc1ccc(S(=O)(=O)Nc2ccc(Oc3ccc(F)cc3)cc2)cc1 = 0.972
• CC(C)(C)C(=O)/C(C#N)=C/c1c(Cl)cccc1Cl = 0.575
• NNC(=O)c1csc(Cc2c(Cl)sc3ccc(Cl)cc23)n1 = 0.994
• S=C(NNc1ccccc1)Nc1cc(Cl)ccc1Cl = 0.965
• O=S(=O)(Nc1ccc(Oc2ccc(OC(F)(F)F)cc2)cc1)c1cccc(Cl)c1 = 0.985

----------
assay: chemical genetic growth profiling, strain panel (AID 1159580); details: S. cerevisiae deletion strains, growth OD, locus YOR080W, strain dia2, stronger effect = lower value
About 2,000 (36%) of roughly 5,500 compounds were called active. Roughly 18% stayed inconclusive and do not appear here. The list shows a part of the results.
assay.endpoint: normalized growth

• CC(=O)O[C@H]1C[C@@H](OC(C)=O)C(C)(C)C2CC(=O)[C@]3(C)C(CC[C@@]4(C)[C@H](c5ccoc5)OC(=O)[C@H]5O[C@]543)[C@]21C (some centres not stated) = 1
• COC(=O)CCC(C)[C@H]1CCC2C3C(C[C@H](O)[C@@]21C)[C@@]1(C)CC[C@@H](O)C[C@H]1C[C@H]3O (some centres not stated) = 1.01
• CC(CCC(=O)O)[C@H]1CCC2C3C[C@H](O)[C@@H]4C[C@H](O)CC[C@]4(C)C3CC[C@@]21C (some centres not stated) = 0.995
• CC(CCC(=O)O)[C@H]1CCC2C3C(C[C@H](O)[C@@]21C)[C@@]1(C)CC[C@@H](O)C[C@H]1C[C@H]3O (some centres not stated) = 1.01
• COC(=O)CCC(C)C1CCC2C3CC[C@@H]4C[C@H](O)CC[C@]4(C)C3C[C@H](O)[C@]12C (some centres not stated) = 1.01
• C=C1C2CCC3(C)C(c4ccoc4)OC(=O)CC13OC1CC(OC(C)=O)C(C)(C)C(CC(=O)OC)C12C (configuration not stated) = 1.01
• C[C@H](CCC(=O)O)[C@H]1CCC2C3C(CC[C@@]21C)[C@@]1(C)CC[C@@H](O)C[C@H]1C[C@@H]3O (some centres not stated) = 0.972
• CC(C)CCCC(C)C1CCC2C3CC[C@H]4CCCC[C@]4(C)C3CC[C@]12C (some centres not stated) = 1.02
• CCCCCC1C(=O)CCC1CC(=O)O (configuration not stated) = 0.987
• CCCCS(=N)(=O)CCC(N)C(=O)O (configuration not stated) = 0.99
• C=C1C2CC[C@@]3(C)[C@H](c4ccoc4)OC(=O)C[C@]13O[C@H]1CC(=O)C(C)(C)C(CC(=O)OC)[C@@]21C (some centres not stated) = 0.957
• COc1c2ccoc2nc2c(OC)c(OCC(O)C(C)(C)O)ccc12 (configuration not stated) = 0.999
• COc1c2ccccc2nc2occc12 = 0.962
• C=C1[C@H]2CC[C@@]3(C)[C@H](c4ccoc4)OC(=O)C[C@]13O[C@H]1C[C@H](O)C(C)(C)[C@H](CC(=O)OC)[C@]12C = 1.02
• O=C(O)c1ccccc1C(=O)Nc1ccc(S(=O)(=O)Nc2nccs2)cc1 = 0.973
• CC(CCC(=O)O)[C@H]1CCC2C3CC[C@@H]4C[C@H](O)CC[C@]4(C)C3C[C@H](O)[C@@]21C (some centres not stated) = 0.986
• C=C1C2=CC(=O)O[C@@H](c3ccoc3)[C@]2(C)CCC1[C@@]1(C)C=CC(=O)C(C)(C)[C@@H]1CC(=O)OC (some centres not stated) = 0.983

----------
assay: chemical genetic growth profiling, strain panel (AID 1159580);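 further: tested at 20 µM; growth read once vehicle control cultures reached saturation at 30 °C; 1 = growth at the plate median or of vehicle wells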; details: S. cerevisiae deletion strains, growth OD, locus YIL147C, strain SLN1
Hit rate of the full screen: of about 5,500 compounds, about 2,000 (36%) were called active. Inconclusive results (about 18%) are left out. No stated cut-off is given here; in the data, active means normalized growth mostly below about 0.91 (no sharp cut-off); inconclusive means no clear call, values can overlap the other calls; inactive means mostly above about 0.92. The list shows a part of the results.
Outcome codes: TRUE = active, FALSE = inactive

* CSC(=NNc1ccccc1)NC(=O)c1c(Cl)cccc1Cl | FALSE
* Cc1nn(Cc2nnc(SCc3cccc(C(F)(F)F)c3)o2)c(C)c1Br | FALSE
* O=C(Nc1ccc(Cl)cc1)O/N=C\c1ccn(-c2ccccc2)n1 | FALSE
* CS(=O)(=O)/C(C#N)=C/c1ccccc1OCc1c(Cl)cccc1Cl | FALSE
* O=[N+]([O-])c1ccc(-c2csc(Nc3ccncc3)n2)cc1 | FALSE
* O=C(CCn1c(=O)oc2ccccc21)Sc1ccc(C(F)(F)F)cc1 | FALSE
* C/C(=N/Nc1ccccc1)c1cc(Cl)cc(Cl)c1O | FALSE
* COc1ccc(C(=O)NCc2csc3ccc(Cl)cc23)cc1OC | FALSE
* S=C(NNc1ccccc1)Nc1cc(Cl)ccc1Cl | FALSE
* NNC(=O)c1csc(Cc2c(Cl)sc3ccc(Cl)cc23)n1 | FALSE
* O=C(Nc1cccc2ccccc12)c1ccccc1O | TRUE
* COc1cc(CC/C(C)=N\O)ccc1OCc1ccc(Cl)c(Cl)c1 | FALSE
* O=C1/C(=C/c2cccs2)COc2ccccc21 | TRUE
* S=C(Nc1cc(Cl)c(Cl)cc1Cl)Nc1ccccc1Br | FALSE
* CC1(C)c2ccccc2N(CCC(N)=O)C12C=Cc1c(ccc3ccccc13)O2 (centres undefined) | FALSE
* O=C1/C(=C/c2ccc(C(F)(F)F)cc2)COc2ccccc21 | FALSE
* O=C(CCn1c(=O)oc2ccccc21)Sc1ccc(Cl)cc1Cl | FALSE
* CC1C/C(=N/Nc2ccc(Br)cc2)c2cc(Cl)ccc2S1(=O)=O (centres undefined) | FALSE
* O=C(Nc1ccc(F)c(Cl)c1)c1ccccc1O | FALSE

----------
assay: chemical genetic growth profiling, strain panel (AID 1159580);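 further: tested at 20 µM; growth read once vehicle control cultures reached saturation at 30 °C; 1 = growth at the plate median or of vehicle wells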; conditions: S. cerevisiae deletion strains, growth OD, locus YOR231W, strain MKK1, stronger effect = lower value
Out of some 5,500 compounds screened, about 2,000 (36%) were called active. Inconclusive results (about 18%) are left out. The list shows a part of the results.
Field: label. Allowed values: yes (1) (normalized growth < 1) or no (0) (normalized growth >= 1).

* O=C1/C(=C/c2cccs2)COc2ccccc21 | yes (1)
* O=[N+]([O-])c1cccc2c(Br)[nH]nc12 | yes (1)
* C[C@H](N)[C@H](O)c1cccc(O)c1 | no (0)

----------
assay: chemical genetic growth profiling, strain panel (AID 1159580);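 further: tested at 20 µM; growth read once vehicle control cultures reached saturation at 30 °C; 1 = growth at the plate median or of vehicle wells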; conditions: S. cerevisiae deletion strains, growth OD, locus YAL030W, strain snc1, stronger effect = lower value
The whole screen tested about 5,500 compounds, of which about 2,000 (36%) were called active. Not shown: some 18% with an inconclusive outcome. This is one part of the list.
Parameter: normalized growth. Scope: all listed entries.
assay.endpoint: normalized growth

• CN1CCN(C2=Nc3ccccc3Oc3ccc(Cl)cc32)CC1 = 1 (inactive)
• C[C@@H]1O[C@@H](O[C@H]2C[C@@H](O)[C@]3(CO)C4C(CC[C@]3(O)C2)[C@@]2(O)CC[C@H](C3=CC(=O)OC3)[C@@]2(C)C[C@H]4O)[C@H](O)[C@H](O)[C@H]1O (stereo not given in full) = 1.03 (inactive)
• C=C1[C@H]2CC[C@@]3(C)[C@H](c4ccoc4)OC(=O)C[C@]13O[C@H]1C[C@H](O)C(C)(C)[C@H](CC(=O)OC)[C@]12C = 1.02 (inactive)
• COc1c(Cl)ccc(Cl)c1C(=O)O = 0.984 (inactive)
• Nc1ccncc1 = 0.997 (inactive)
• O=c1cc(-c2ccc(O)cc2)oc2cc(O)ccc12 = 0.959 (inactive)
• C[C@@H]1CC2C3C[C@H](F)C4=CC(=O)C=C[C@]4(C)[C@@]3(F)[C@@H](O)C[C@]2(C)[C@@]1(O)C(=O)COC(=O)C(C)(C)C (stereo not given in full) = 0.98 (inactive)
• O=c1cc(-c2cc(O)c(O)c(O)c2)oc2cc(O)cc(O)c12 = 1.01 (inactive)
• CN(C)CCC(c1ccc(Br)cc1)c1ccccn1 (stereo not given) = 0.975 (inactive)
• C=C1C2CC[C@@]3(C)[C@H](c4ccoc4)OC(=O)C[C@]13O[C@H]1CC(=O)C(C)(C)C(CC(=O)OC)[C@@]21C (stereo not given in full) = 0.983 (inactive)
• C=C1C2CC[C@@]3(C)[C@H](c4ccoc4)OC(=O)C[C@]13O[C@H]1CC(O)C(C)(C)C(CC(=O)OC)[C@@]21C (stereo not given in full) = 0.949 (inactive)
• CC1=C2[C@H]3OC(=O)[C@@H](C)[C@@H]3CC[C@@]2(C)C=CC1=O = 0.982 (inactive)
• O=C(O)CCCOc1ccc(Cl)cc1Cl = 0.944 (inactive)
• Clc1ccc2c(c1)C(N1CCNCC1)=Nc1ccccc1O2 = 0.978 (inactive)
• CN(C)C(=O)Nc1ccc(Cl)c(Cl)c1 = 0.987 (inactive)
• COc1cc(OC)c(OC)cc1C=O = 0.998 (inactive)
• NNCCc1ccccc1 = 1.01 (inactive)
• COC(=O)CCCOc1ccc(Cl)cc1Cl = 0.968 (inactive)
• C=C1C2CCC3(C)C(c4ccoc4)OC(=O)CC13OC1CC(OC(C)=O)C(C)(C)C(CC(=O)OC)C12C (stereo not given) = 1 (inactive)
• C=C1C2=CC(=O)O[C@@H](c3ccoc3)[C@]2(C)CCC1[C@@]1(C)C=CC(=O)C(C)(C)[C@@H]1CC(=O)OC (stereo not given in full) = 0.998 (inactive)
